Below are pKi measurements against cGMP-specific 3',5'-cyclic phosphodiesterase (Homo sapiens, UniProt O76074) drawn from the literature.
Numbers only, as −log10 of the molar value.

Examples from the recorded data:
>  <compound>
O=S(=O)(Cc1ccccc1)N1Cc2c(nc3ccccc3c2O)C1c1ccc2c(c1)OCO2 (stereo unspecified)

>  <pKi>
6.95

$$$$
>  <compound>
COc1ccc(-c2cnc(N3Cc4c(nc5ccccc5c4O)[C@H]3c3ccc4c(c3)OCO4)nc2)cc1OC

>  <pKi>
9.68

$$$$
>  <compound>
COc1cc(C)c2nc3[nH]nc(C)c3c(CN3CCOC(C)C3)c2c1 (stereo unspecified)

>  <pKi>
5.05

$$$$
>  <compound>
Oc1c2c(nc3ccccc13)C(c1ccc3c(c1)OCO3)N(C/C=C/c1ccccc1)C2 (stereo unspecified)

>  <pKi>
7.63

$$$$

I'm hoping you can list pKi for every compound here, please.
1. COc1ccc(-c2cnc(N3Cc4c(nc5ccccc5c4O)C3c3ccc4c(c3)CCO4)nc2)cc1 (stereo unspecified)
2. O=C(NCc1ccccc1)N1Cc2c(nc3ccccc3c2O)C1c1ccc2c(c1)OCO2 (stereo unspecified)
3. O=S(=O)(/C=C/c1ccccc1)N1Cc2c(nc3ccccc3c2O)C1c1ccc2c(c1)OCO2 (stereo unspecified)
4. O=C(OCc1ccccc1)N1Cc2c(nc3ccccc3c2O)C1c1ccc2c(c1)OCO2 (stereo unspecified)
5. CN1CCN(C(=O)c2ccc(-c3ccc(C(=O)N4CCc5c([nH]c6ccccc56)C4c4ccc5c(c4)OCO5)o3)cc2)CC1 (racemic)
6. Cc1ccc(-c2cnc(N3CCc4c([nH]c5ccccc45)C3c3ccc4c(c3)OCO4)nc2)cc1 (stereo unspecified)
7. CC(C)CCn1c2c(c3c(O)cc(O)cc31)CCn1c-2nc2ccccc2c1=O

1: 9.40; 2: 8.97; 3: 6.93; 4: 9.24; 5: 8.10; 6: 6.27; 7: 7.07

Give one value of pKi per listed compound.
1. Nc1ccc(-c2ccc(C(=O)N3CCc4c([nH]c5ccccc45)C3c3ccc4c(c3)OCO4)o2)cc1 (stereo unspecified)
2. Oc1c2c(nc3ccccc13)C(c1ccc3c(c1)CCO3)N(c1ncccn1)C2 (stereo unspecified)
3. CC(=O)Nc1cccc(-c2ccc(C(=O)N3CCc4c([nH]c5ccccc45)C3c3ccc4c(c3)OCO4)o2)c1 (stereo unspecified)

1. 6.91
2. 8.97
3. 7.30

---

The following compounds were reported with pKi values on UniProt:O76074 in different studies.
Answers are plain numbers, as −log10 of the molar value.

Some compounds with recorded pKi:
>  <compound>
COc1ccc(-c2cnc(N3Cc4c(nc5ccccc5c4O)[C@H]3c3ccc4c(c3)CCO4)nc2)cc1

>  <pKi>
9.64

$$$$
>  <compound>
COc1cc(C)c2nc3[nH]nc(C)c3c(CN3CCOC(CO)C3)c2c1 (configuration not stated)

>  <pKi>
5.30

$$$$
>  <compound>
O=C(OCc1ccncc1)N1Cc2c(nc3ccccc3c2O)[C@@H]1c1ccc2c(c1)OCO2

>  <pKi>
8.46

$$$$
>  <compound>
CC(=O)Nc1ccc(-c2ccc(C(=O)N3CCc4c([nH]c5ccccc45)C3c3ccc4c(c3)OCO4)o2)cc1 (configuration not stated)

>  <pKi>
7.19

$$$$

Can you give me pKi for all of these, one by one?
1. COc1cc(C)c2nc3[nH]nc(C)c3c(CN3CC[C@@H](O)C3)c2c1
2. COc1ccc(-c2cnc(N3Cc4c(nc5ccccc5c4O)C3c3ccc4c(c3)CCC4)nc2)cc1OC (configuration not stated)
3. O=C(Cc1ccccc1)N1Cc2c(nc3ccccc3c2O)C1c1ccc2c(c1)OCO2 (configuration not stated)
4. COCCOc1cc(C)c2nc3[nH]nc(C)c3c(CN3CCCOCC3)c2c1
5. COc1cc(C)c2nc3[nH]nc(C)c3c(CN3CCOCC3)c2c1
6. COc1ccc(-c2cnc(N3CCc4c([nH]c5ccccc45)C3c3ccc4c(c3)OCO4)nc2)cc1 (stereo in doubt; 15a)

[5.19, 8.94, 7.90, 4.61, 4.97, 6.61]
